Target: recombinant PRL-3 (Homo sapiens, UniProt O75365)
Construct: 6xHis (N, cleaved yes); made in house; host or cells: E. coli One Shot BL21 Star
Sequence (O75365 whole entry): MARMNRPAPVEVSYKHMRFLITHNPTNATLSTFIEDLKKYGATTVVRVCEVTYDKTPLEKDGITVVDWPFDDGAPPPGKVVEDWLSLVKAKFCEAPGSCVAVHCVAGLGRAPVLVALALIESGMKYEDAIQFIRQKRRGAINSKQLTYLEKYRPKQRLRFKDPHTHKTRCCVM
Experiment: In vitro phosphatase assay (DiFMUP hydrolysis), PRL-3; note: test concentration or dose not given here
Assay type: biochemical
Conditions: FDA-approved drug screen; compared to DMSO
quantity-name: % Phosphatase Activity (compared to DMSO) PRL-3 (%)
Note: unit % is implicit; provide only the numeric part.

Entry C[C@H](N[C@@H](CCc1ccccc1)C(=O)O)C(=O)N1CCC[C@H]1C(=O)O.O.O [Enalaprilat Dihydrate] has what % Phosphatase Activity (compared to DMSO) PRL-3?
78

Entry CS(=O)(=O)c1ccc(C2=C(c3ccccc3)C(=O)OC2)cc1 has what % Phosphatase Activity (compared to DMSO) PRL-3?
92

Entry COC(=O)C1=CCCN(C)C1 has what % Phosphatase Activity (compared to DMSO) PRL-3?
84

Entry Clc1ccc(COC(Cn2ccnc2)c2ccc(Cl)cc2Cl)cc1 (stereo not drawn) [Econazole nitrate] has what % Phosphatase Activity (compared to DMSO) PRL-3?
93

Entry CC[C@@H](C(N)=O)N1CCCC1=O has what % Phosphatase Activity (compared to DMSO) PRL-3?
71

Entry NC(=O)CN1CC(O)CC1=O (stereo not drawn) has what % Phosphatase Activity (compared to DMSO) PRL-3?
71

* * *

Exercise: state measured % Phosphatase Activity (compared to DMSO) PRL-3 for each of the molecules provided.
Target: recombinant PRL-3 (Homo sapiens, UniProt O75365)
Construct: 6xHis (N, cleaved yes); made in house; host or cells: E. coli One Shot BL21 Star
Test: In vitro phosphatase assay (DiFMUP hydrolysis), PRL-3; note: test concentration or dose not given here
Type: biochemical
Conditions: FDA-approved drug screen; compared to DMSO
Structures can show the parent of a compound that is named as a salt.

Entry C/C(=C\c1csc(C)n1)[C@@H]1C[C@@H]2O[C@]2(C)CCC[C@H](C)[C@H](O)[C@@H](C)C(=O)C(C)(C)[C@@H](O)CC(=O)O1 [Epothilone B (EPO906, Patupilone)] has what % Phosphatase Activity (compared to DMSO) PRL-3?
80%

Entry O=C1c2c(O)ccc(O)c2C(=O)c2c(NCCNCCO)ccc(NCCNCCO)c21 [Mitoxantrone HCl] has what % Phosphatase Activity (compared to DMSO) PRL-3?
61%

Entry NC(=O)C1CCCc2c1[nH]c1ccc(Cl)cc21 (stereo not shown) [EX 527 (Selisistat)] has what % Phosphatase Activity (compared to DMSO) PRL-3?
84%

Entry CCN(CCO)CCCC(C)Nc1ccnc2cc(Cl)ccc12 (stereo not shown) [Hydroxychloroquine Sulfate] has what % Phosphatase Activity (compared to DMSO) PRL-3?
100%

Entry CCCN(CCc1cccs1)[C@H]1CCc2c(O)cccc2C1 has what % Phosphatase Activity (compared to DMSO) PRL-3?
82%

Entry CC(C(=O)O)c1cccc(C(=O)c2ccccc2)c1 (stereo not shown) has what % Phosphatase Activity (compared to DMSO) PRL-3?
87%

Entry CCCOc1ccc(C(=O)OCCN(CC)CC)cc1N [Proparacaine HCl] has what % Phosphatase Activity (compared to DMSO) PRL-3?
96%

Entry COC(c1ccccc1)(c1ccccc1)[C@H](Oc1nc(C)cc(C)n1)C(=O)O has what % Phosphatase Activity (compared to DMSO) PRL-3?
78%

Entry O=C(O)CCc1nc2ccccc2[nH]1 has what % Phosphatase Activity (compared to DMSO) PRL-3?
86%

Entry NCC1(CC(=O)O)CCCCC1 has what % Phosphatase Activity (compared to DMSO) PRL-3?
87%

Entry COC(=O)N/N=C/c1c[n+]([O-])c2ccccc2[n+]1[O-] has what % Phosphatase Activity (compared to DMSO) PRL-3?
99%

Entry CCCCC1C(=O)N(c2ccccc2)N(c2ccccc2)C1=O has what % Phosphatase Activity (compared to DMSO) PRL-3?
81%

Entry Nc1cccc2c1CN(C1CCC(=O)NC1=O)C2=O (stereo not shown) [Lenalidomide (CC-5013)] has what % Phosphatase Activity (compared to DMSO) PRL-3?
84%

Entry Cc1cc(=O)n(-c2ccccc2)n1C [Antipyrine] has what % Phosphatase Activity (compared to DMSO) PRL-3?
87%

Entry CN1C2CCCC1CC(NC(=O)c1nn(C)c3ccccc13)C2 (stereo not shown) [Granisetron HCl] has what % Phosphatase Activity (compared to DMSO) PRL-3?
93%

Entry CCN(CC)CCNC(=O)c1cc(Cl)c(N)cc1OC.Cl [MetoclopraMide HCl] has what % Phosphatase Activity (compared to DMSO) PRL-3?
75%
